# Test system: RPMI-8226 leukemia
# assayMethodText: NCI tumour cell line growth inhibition, 48 h
quantityName: TGI

- compound: "c1ccc(Nc2ncc(-c3ccccc3)o2)cc1"
  TGI: "> 25 µM"
- compound: "N#Cc1nc(-c2cnccn2)oc1N"
  TGI: "> 100 µM"

RPMI-8226 leukemia TGI of O=C(O)C(Cl)Cl is > 10000 µM

RPMI-8226 leukemia TGI of CC(N)/C(N)=N/O (configuration not stated) is > 100 µM

RPMI-8226 leukemia TGI of CN(C)C=Nc1nc(=O)n(C2CCC(CO)O2)cc1F (configuration not stated) is > 100 µM

RPMI-8226 leukemia TGI of O=C(CC1Sc2ccccc2NC1=O)Nc1ccccc1[N+](=O)[O-] (configuration not stated) is > 100 µM

RPMI-8226 leukemia TGI of Cc1nnc2ccnn2c1C is > 100 µM

RPMI-8226 leukemia TGI of COC(=O)c1ccc(Cc2cc(Cc3ccc(C(=O)OC)cc3)cc(Cc3ccc(C(=O)OC)cc3)c2)cc1 is > 25 µM

RPMI-8226 leukemia TGI of N#CC(C(=O)CCC(=O)Nc1ccc(Cl)c(Cl)c1)c1ccccc1 (configuration not stated) is > 100 µM

RPMI-8226 leukemia TGI of COc1ccc2ncnc(Nc3ccc(OCc4ccccc4)cc3)c2c1 is > 25 µM

RPMI-8226 leukemia TGI of C=C1c2nc3ccccc3n2C=C(c2ccc(OC)cc2)N1c1ccc(OC)cc1 is > 100 µM

RPMI-8226 leukemia TGI of Cc1ccc(-[n+]2cc([O-])on2)cc1 is > 100 µM
